tested on: T cells from cat allergic patients; test: T cell proliferation of TRFP-primed T cells from cat allergic patients (tritiated thymidine), Example 5 Part A; assay type: cell-based, human; settings: Table 2, chain #1 TRFP peptides; average cpm with antigen divided by cpm of T cells and APC alone, responding patients
Decide by SI: equal to or exceeding 7 means 1.0, less means 0.0.

Reference set (3 entries):
Fel 4-2: TRFP chain 1 amino acids 37-49 (NARILKNCVDAKM; UniProt P30438 59-71, looked up, fragment) ... 0.0
Fel 4-1: TRFP chain 1 amino acids 37-52 (NARILKNCVDAKMTEE; UniProt P30438 59-74, looked up, fragment) ... 1.0
EITPAVKRDVDLFLTGT [Fel 1, TRFP chain 1 amino acids 1-17, amino acid 3 changed to T] ... 0.0

Answer whether SI of NARILKNCVDAKMTEEDKE [Fel 4, TRFP chain 1 amino acids 37-55] is greater than or equal to 7.
1.0

Answer whether SI of DVDLFLTGTPDEYVEQV [Fel 2, TRFP chain 1 amino acids 9-25] is greater than or equal to 7.
1.0

Answer whether SI of Fel 1-5: TRFP chain 1 amino acids 8-17 (RDVDLFLTGT; UniProt P30438 30-39, looked up, fragment) is greater than or equal to 7.
0.0

Answer whether SI of Fel 1-4: TRFP chain 1 amino acids 6-17 (VKRDVDLFLTGT; UniProt P30438 28-39, looked up, fragment) is greater than or equal to 7.
1.0

Answer whether SI of Fel 14-2: TRFP chain 1 amino acids 29-42 (KALPVVLENARILK; UniProt P30438 51-64, looked up, fragment) is greater than or equal to 7.
0.0
